System: primary neurons from rat cerebral cortex
protocol description: NMDA-induced LDH release assay in primary cortical neurons (neuroprotection)
Format: cell-based
setup conditions: Rattus norvegicus, Primary neuron; two experiments; 300 uM NMDA + 50 μM glycine 15 minutes, LDH after 24 hours; read-out: average EC50 (±SD), NMDA-induced LDH release
Field 'label' (enum: Fulfilled / Not fulfilled). Set to Fulfilled when EC50 is strictly under 20 µM; else Not fulfilled.

Worked examples follow.
molecule=CC12CC3CC4C5CC(N)(CC41)CC2C5C3 group_label="Not fulfilled"
molecule=CC12CC3C4CC5(C)CC3C(C1)C(N)(C5)C4C2 group_label=Fulfilled
molecule="CC12CC3CC4C1CC1CC2C(N)(C3)C4(C)C1 (centres unmarked)" group_label="Not fulfilled"

**Q:** Is it true that EC50 reported for CC12CC3(N)CC4C5CC(CC41)CC2C5C3 is less than 20 µM?
**A:** Not fulfilled

**Q:** Is it true that EC50 reported for CC12CC3CC4C1CC1(N)CC2C(C3)C4(C)C1 is less than 20 µM?
**A:** Fulfilled

* * *

test target: NMDA receptor
protocol description: [3H]MK-801 binding assay, NMDA receptors in guinea pig brain membranes
setup conditions: guinea pig brain membrane preparation (Table 29); read-out: Ki
reported property: pKi
Note: pKi values are expressed as the negative base-10 logarithm of concentration in M.

compound="CC(N)C12CC3CC4C5CC(CC41)CC2C5C3 (centres unmarked) [MDT-57]" result_value=5.40

Record summary for NC12CC3CC4C5CC(CC41)CC2C5C3 [MDT-1] : reported pKi = 5.12

* * *

Test system: NMDA receptor
protocol description: Whole-cell voltage-clamp recordings of NMDA evoked currents in hypocretin neurons (hypothalamic slices)
Type: cell-based, mouse
setup conditions: 100 μM, bath application, -60 mV, mean±SEM
reported property: inhibition of the peak amplitude of NMDA evoked currents (%)
Number only, in %; omit the unit.

Below: 2 molecules and their reported inhibition of the peak amplitude of NMDA evoked currents.
molecule="CC12CC3(N)CC4C1CC1CC2C(N)(C3)C4(C)C1 (stereo not shown)" test_target="NMDA receptor" result_value=15.2
molecule=CC12CC3(N)CC4C5CC(CC41)CC2C5C3 test_target="NMDA receptor" result_value=45

Now, please, on to the next molecule.
Record summary for CC12CC3CC4C1CC1(N)CC2C(C3)C4(C)C1 : reported inhibition of the peak amplitude of NMDA evoked currents = 22.9

* * *

test target: NMDA receptor
protocol description: [3H]MK-801 binding assay, NMDA receptors in guinea pig brain membranes
setup conditions: guinea pig brain membrane preparation (Table 29); read-out: Ki
Measured log10 Ki accompanies every entry in the list below.
Note the log scale: values are log10 of Ki expressed in µM.

Below: 10 compounds and their reported log10 Ki.
compound="NCC12CC3CC4C5CC(CC41)CC2C5C3 [MDT-56]" reported_property="log10 Ki" result_value=0.99
compound="CC12CC3CC4C1CC1(N)CC2C(C3)C4(C)C1 [MDT-33, 1,6-dimethyl-4-aminodiamantane]" reported_property="log10 Ki" result_value=0.89
compound="CC12CC3(N)CC4C5CC(CC41)CC2C5C3 (single isomer, unassigned) [MDT-22 (prep from Example 7)]" reported_property="log10 Ki" result_value=1.02
compound="NC12CC3C4CC5CC3C(C1)C(C5)C4C2 [MDT-3]" reported_property="log10 Ki" result_value=1.54
compound="CC12CC3CC4C1CC1(N)CC2C(C3)C4(C)C1 [MDT-23 (prep from Example 5)]" reported_property="log10 Ki" result_value=0.48
compound="CC12CC3C4CC5(C)CC3C(C1)C(N)(C5)C4C2 [MDT-51, 4,9-dimethyl-1-aminodiamantane]" reported_property="log10 Ki" result_value=0.67
compound="CC12CC3(N)CC4C1CC1CC2C(N)(C3)C4(C)C1 (stereo not drawn) [MDT-9, 1,6-dimethyl-2,4-diaminodiamantane]" reported_property="log10 Ki" result_value=1.35
compound="NC12CC3CC4C5CC(CC41)CC2C5C3 [MDT-2]" reported_property="log10 Ki" result_value=0.81
compound="CC12CC3CC4C5CC(N)(CC41)CC2C5C3 [MDT-24, 1-methyl-4-aminodiamantane]" reported_property="log10 Ki" result_value=1.13
compound="CC12CC3CC4C1CC1(O)CC2C(C3)C4(C)C1 [MDT-45, 1,6-dimethyl-4-hydroxydiamantane]" reported_property="log10 Ki" result_value=1.99

Record summary for CC12CC3C4CC5(C)CC(C(C1)C3(N)C5)C4(N)C2 [MDT-53, 4,9-dimethyl-1,6-diaminodiamantane] : reported log10 Ki = 2.05

Record summary for CC12CC3CC4C1CC1(N)CC2C(C3)C4(C)C1 [MDT-23 (prep from Example 4)] : reported log10 Ki = 0.59

Record summary for CC12CC3CC4C1CC1(N)CC2C(C3)C4(N)C1 [MDT-29] : reported log10 Ki = 1.61
